# System Tested: UniProt P35354
# Assay Protocol: COX functional assay
# Format: biochemical
# Condition Summary: ratio of IC50 values
Item-by-item account of COX-2 selectivity (IC50 COX-1 / IC50 COX-2)
Value Type: COX-2 selectivity (IC50 COX-1 / IC50 COX-2)

Compound	Observed Result
CCC/C=C1\OC(=O)C2=C1CC[C@H]1[C@H]3C=C4C(=O)O/C(=C\CCC)[C@@]4(CC3)[C@@H]21 [Senkyunolide O]	5.00
COc1cc(/C=C/C(=O)OCCc2ccccc2)ccc1O [Phenethyl trans-ferulate]	0.58

###

# System Tested: human COX-2 (Homo sapiens)
# Sequence (P35354 18-604): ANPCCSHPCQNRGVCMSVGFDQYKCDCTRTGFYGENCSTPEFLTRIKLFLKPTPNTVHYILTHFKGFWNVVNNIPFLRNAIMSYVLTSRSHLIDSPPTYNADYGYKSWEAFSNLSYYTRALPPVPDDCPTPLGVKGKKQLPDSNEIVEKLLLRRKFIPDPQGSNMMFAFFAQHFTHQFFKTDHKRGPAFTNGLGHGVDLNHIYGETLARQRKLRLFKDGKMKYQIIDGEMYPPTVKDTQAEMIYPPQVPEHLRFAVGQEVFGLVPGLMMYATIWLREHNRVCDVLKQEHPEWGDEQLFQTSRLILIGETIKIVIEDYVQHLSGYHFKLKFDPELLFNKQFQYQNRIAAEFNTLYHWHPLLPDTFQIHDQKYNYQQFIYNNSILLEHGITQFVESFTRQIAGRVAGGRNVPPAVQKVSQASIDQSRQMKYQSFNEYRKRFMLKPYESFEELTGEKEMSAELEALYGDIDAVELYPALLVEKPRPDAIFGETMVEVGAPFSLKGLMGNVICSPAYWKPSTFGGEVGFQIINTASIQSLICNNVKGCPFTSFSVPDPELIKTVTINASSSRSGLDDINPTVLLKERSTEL
# Assay Protocol: COX functional assay
# Assay type: biochemical
# Condition Summary: read-out: IC50 COX-2; N=3, mean ± std. dev.
pIC50: −log10 of the molar value.
Item-by-item account of pIC50
Value Type: pIC50

> print(dat)
                                   compound  operator  observed.result
1  CC(=O)O[C@@H]1CC[C@@]2(C)[C@@H](CC[C@]3(C)[C@@H]2CC=C2[C@@H]4[C@@H](C)[C@H](C)CC[C@]4(C)CC[C@]23C)[C@@]1(C)C(=O)O         =             4.14
2  CC(=O)O[C@@H]1CC[C@@]2(C)[C@@H](CC[C@]3(C)[C@@H]2C(=O)C=C2[C@@H]4[C@@H](C)[C@H](C)CC[C@]4(C)CC[C@]23C)[C@@]1(C)C(=O)O         =             4.07
3  CCC/C=C1\OC(=O)C2=C1CC[C@H]1[C@H]3C=C4C(=O)O/C(=C\CCC)[C@@]4(CC3)[C@@H]21 [Senkyunolide O]         =             5.30
4  CC(=O)O[C@@H]1CC[C@@]2(C)[C@@H](CC[C@]3(C)[C@@H]2CC=C2[C@@H]4CC(C)(C)CC[C@]4(C)CC[C@]23C)[C@@]1(C)C(=O)O         <             4.00
5  COc1cc(/C=C/C(=O)OCCc2ccccc2)ccc1O [Phenethyl trans-ferulate]         =             4.51
6  C=C(C)[C@@H]1CC[C@]2(C)[C@H](CC=C3[C@@H]4[C@@H](C)[C@H](C)CC[C@]4(C)CC[C@]32C)[C@@]1(C)CCC(=O)O         =             5.05

Ref: paper PMC2860736
